Target under test: Histone-lysine N-methyltransferase EHMT2 (Homo sapiens) (UniProt Q96KQ7)
Sequence (Q96KQ7 913-1193 limits assumed): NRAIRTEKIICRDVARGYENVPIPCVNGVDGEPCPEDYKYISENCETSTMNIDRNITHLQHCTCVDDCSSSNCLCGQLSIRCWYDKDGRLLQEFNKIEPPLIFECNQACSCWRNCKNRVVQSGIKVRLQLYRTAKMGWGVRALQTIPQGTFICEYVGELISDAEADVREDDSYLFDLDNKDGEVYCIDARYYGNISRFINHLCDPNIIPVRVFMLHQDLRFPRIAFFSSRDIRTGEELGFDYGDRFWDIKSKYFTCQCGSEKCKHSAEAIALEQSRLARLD
Experiment: qHTS Assay for Inhibitors of Histone Lysine Methyltransferase G9a; note: nearly all actives have a fitted effect of over 75% in size
Stated conditions: G9a H3K9 monomethylation, AlphaScreen, 2 h; series mostly up to 59 µM
Out of some 350,000 compounds screened, about 31,000 (8.9%) were called active. About 15% were inconclusive and are not listed. Calls come from the whole dose curve; as a rule, active = well fitted inhibition curve with a large enough effect; inconclusive = small, poorly fitted or top-dose-only effect; inactive = no such curve, though single readings can be large or run the other way. The list comes from a sample in which actives are over-represented; it also holds close analogues and randomly drawn compounds.
Just give me one of these, please: 1 (active), -1 (inactive)

Would you mind telling me which call this test gave Cc1ccc(NC(=O)CSc2nc3c(c(=O)[nH]2)CN(Cc2ccc4c(c2)OCO4)CC3)cc1C ?
-1

Here is the next molecule: COc1ccc(C(=O)N(CCN2CCOCC2)CC(=O)NC2CCCC2)cc1OC
1

Here is the next molecule: CC(=O)Nc1ccc(NC(=O)CSc2nnnn2-c2ccccc2F)cc1
-1

Here is the next molecule: Cc1ccc(C(C)C)cc1OCC(=O)Nc1ccccc1N1CCCC1
1

Here is the next molecule: CCC(=O)N1CCN(c2ccccc2NC(=O)COc2cccc(C)c2C)CC1
-1

Here is the next molecule: CN1CCN(c2ccccc2NC(=O)COc2ccc(C3CCCCC3)cc2)CC1
1

Here is the next molecule: CC(OC(=O)CNS(=O)(=O)/C=C/c1ccccc1)C(=O)Nc1ccc(S(=O)(=O)N2CCCC2)cc1 (stereo not given)
1

Here is the next molecule: CC(C)C(=O)Nc1nnc(SCC(=O)N2C(C)CCCC2C)s1 (stereo not given)
1

Here is the next molecule: CCCN1CN=C(NS(=O)(=O)c2ccc(NC(C)=O)cc2)NC1
-1

Here is the next molecule: CCCc1cc(=O)[nH]c2nnc(SCC(=O)Nc3nnc(SCC)s3)n12
-1
